- Experiment Description: chemical genetic growth profiling, strain panel (AID 1159580);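 also: tested at 20 µM; growth read once vehicle control cultures reached saturation at 30 °C; 1 = growth at the plate median or of vehicle wells; lower values mean less growth of the strain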
- Experimental Conditions: S. cerevisiae deletion strains, growth OD, locus YNR052C, strain pop2, stronger effect = lower value
The campaign covered roughly 5,500 compounds. About 2,000 (36%) were called active. Inconclusive results (about 18%) are left out. The list shows a part of the results.
Experimental Readout: normalized growth
// return just the number, without any unit appended

# count of solved cases: 5
NC(Cc1c[nH]c2ccccc12)C(=O)O (stereo unspecified)    0.991
CC(=O)O[C@@H]1CC[C@@]2(C)C(CC[C@]3(C)C2CC=C2C4CC(C)(C)CC[C@]4(C(=O)O)CC[C@]23C)C1(C)C (stereo partly specified)    0.985
Nc1ccc(S(=O)(=O)c2ccc(N)cc2)cc1    1.01
Nc1c2ccccc2nc2ccccc12    0.778
COC(=O)C[C@H]1C(C)(C)C2(O)OC34CC2C(=O)[C@]1(C)C3CC[C@]1(C)C4=CC(=O)O[C@H]1c1ccoc1 (stereo partly specified)    1.01

Prompt: I have this molecule here, C#C[C@]1(O)CCC2C3CCC4=CC(=O)CC[C@@H]4C3CC[C@@]21CC (stereo partly specified) , and I need its recorded normalized growth.
Response: 0.964

Prompt: Repeat for the following molecule: CC(=O)NC(C(=O)O)C(C)(C)SN=O (stereo unspecified)
Response: 0.991

Prompt: Repeat for the following molecule: C[C@@H]1OC(O[C@H]2[C@H](O)[C@@H](O)[C@H](OC[C@H]3O[C@@H](OC(=O)[C@]45CCC(C)(C)CC4C4=CCC6[C@@]7(C)CC[C@H](OC8OC[C@H](O)[C@H](O)[C@H]8OC8O[C@@H](C)[C@H](O)[C@@H](O)[C@H]8O)[C@@](C)(CO)C7CC[C@@]6(C)[C@]4(C)CC5)[C@H](O)[C@@H](O)[C@@H]3O)O[C@@H]2CO)[C@H](O)[C@H](O)[C@H]1O (stereo partly specified)
Response: 0.978

Prompt: Repeat for the following molecule: C[C@@H]1OC(O[C@H]2C(O[C@H]3CC[C@@]4(C)C(CC[C@]5(C)C4CC=C4C6CC(C)(C)CC[C@]6(C(=O)O)CC[C@]45C)[C@]3(C)CO)OC[C@H](O)[C@@H]2O)[C@H](O)[C@H](O)[C@H]1O (stereo partly specified)
Response: 0.0612

Prompt: Repeat for the following molecule: COC(=O)Nc1nc2ccc(Sc3ccccc3)cc2[nH]1
Response: 1

Prompt: Repeat for the following molecule: CO[C@@]12[C@@H]3NC3CN1C1=C(C(=O)C(N)=C(C)C1=O)[C@@H]2COC(N)=O (stereo partly specified)
Response: 0.96

Prompt: Repeat for the following molecule: CC(C)=CCCC1(C)C=Cc2c(O)c3c(c(CC=C(C)C)c2O1)OC12C(=CC4CC1C(C)(C)OC2(C/C=C(/C)C(=O)O)C4O)C3=O (stereo unspecified)
Response: 0.961

###

Reported normalized growth by item:
- Experiment Description: chemical genetic growth profiling, strain panel (AID 1159580)
- Experimental Conditions: S. cerevisiae deletion strains, growth OD, locus YPL204W, strain HRR25, stronger effect = lower value
Among all 5,500 compounds or so, about 2,000 (36%) were called active. Roughly 18% stayed inconclusive and do not appear here. Some of the results follow.
// return just the number, without any unit appended

# count of solved cases: 5
Cc1csc(NC(=O)Nc2ccc(C(F)(F)F)cc2)c1Cl    0.868
Nc1ccccc1C(=O)N/N=C\c1cc(Br)ccc1O    0.947
O=C(N/N=C\c1cc(Br)ccc1O)c1ccccc1Oc1ccccc1    0.94
Cc1ccc(S(=O)(=O)n2c(Sc3ccc([N+](=O)[O-])cc3[N+](=O)[O-])nc3cc(C)ccc32)cc1    0.931
O=C(NCCc1ccncc1)c1ccc(Cl)c(Cl)c1    0.972

Prompt: I have this compound here, COC(=O)c1cnn(-c2c(Cl)cccc2Cl)c1C=C(C#N)C#N , and I need its recorded normalized growth.
Response: 0.956

Prompt: Repeat for the following compound: O=C(c1cccs1)N(Cc1cccnc1)Cc1ccc(Cl)cc1Cl
Response: 0.902

Prompt: Repeat for the following compound: O=C(c1ccc(Cl)cc1)N(Cc1ccccc1)Cc1cccnc1
Response: 0.885

Prompt: Repeat for the following compound: Cc1nc(-c2ccccn2)nc(N(C)Cc2ccccc2)c1Cl
Response: 0.938

Prompt: Repeat for the following compound: Nc1ccc(Sc2ccccc2)nc1Sc1ccccc1
Response: 0.903

Prompt: Repeat for the following compound: O=C(NCC1COc2ccccc2O1)c1ccc(Cl)cc1 (stereo unspecified)
Response: 0.682

###

- Experiment Description: chemical genetic growth profiling, strain panel (AID 1159580)
- Experimental Conditions: S. cerevisiae deletion strains, growth OD, locus YAL030W, strain snc1, stronger effect = lower value
Out of some 5,500 compounds screened, about 2,000 (36%) were called active. Another 18% or so got no clear call; they are omitted. This is one part of the list.
Reported normalized growth by item:
// return just the number, without any unit appended

Prompt: I have this compound here, Cc1cc(C(C)(C)C)c(O)c(C(C)(C)C)c1 , and I need its recorded normalized growth.
Response: 0.99

###

- Experiment Description: chemical genetic growth profiling, strain panel (AID 1159580)
- Experimental Conditions: S. cerevisiae deletion strains, growth OD, locus YNL020C, strain ARK1, stronger effect = lower value
The whole screen tested about 5,500 compounds, of which about 2,000 (36%) were called active. Not shown: some 18% with an inconclusive outcome. The list shows a part of the results.
# label = Criterion met if normalized growth < 0.9 else Criterion not met

# example entries with known answers
Nc1ccc(Sc2ccccc2)nc1Sc1ccccc1    Criterion not met
S=C(NNC(=S)NC1CC2C=CC1C2)Nc1ccc(Br)c(Cl)c1 (configuration not stated)    Criterion not met
Cc1csc(NC(=O)Nc2ccc(C(F)(F)F)cc2)c1Cl    Criterion met
O=C(NCC1COc2ccccc2O1)c1ccc(Cl)cc1 (configuration not stated)    Criterion met
Clc1ccc2c(c1)c1ccccc1n2CN1CCOCC1    Criterion met

Prompt: Is the reported normalized growth for Cc1csc(NC(=O)Nc2ccc(C(F)(F)F)cc2)c1 strictly below 0.9?
Response: Criterion met

Prompt: Repeat for the following molecule: O=S(=O)(NC(=S)Nc1ccc(Cl)c(Cl)c1)c1ccccc1
Response: Criterion not met

Prompt: Repeat for the following molecule: O=[N+]([O-])c1cnc(Sc2nnc(SCc3cccc(C(F)(F)F)c3)s2)s1
Response: Criterion met

###

- Experiment Description: chemical genetic growth profiling, strain panel (AID 1159580);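 also: tested at 20 µM; growth read once vehicle control cultures reached saturation at 30 °C; 1 = growth at the plate median or of vehicle wells; lower values mean less growth of the strain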
- Experimental Conditions: S. cerevisiae deletion strains, growth OD, locus YML094W, strain GIM5, stronger effect = lower value
In all, about 5,500 compounds went through this assay and about 2,000 (36%) were called active. Roughly 18% stayed inconclusive and do not appear here. The list shows a part of the results.
Experimental Readout: normalized growth
// return just the number, without any unit appended

CC12CCC3C4CCC(=O)C=C4CCC3C1CCC2=O (stereo not given)    0.994
COc1ccc(C(=O)CN2CCN(c3cc(C)nc4ccccc34)CC2)cc1    0.957
O=C(CSCc1c(F)cccc1Cl)Nc1ccc(F)c(Cl)c1    0.826
COC(=O)c1cccc(NC(=O)CC2C(=O)NCCN2C(=O)c2cccs2)c1 (stereo not given)    0.993
CSC(=CC(=O)c1ccc(Cl)cc1)SC    0.79
N#C/C(NCc1cccs1)=C(\C#N)NCc1c(F)cccc1Cl    0.964
Cc1csc2ccc(Cl)cc12    1.01
c1cc2c(cc1N=C1SCC3CCCCN13)OCO2 (stereo not given)    0.973
COc1ccc(Oc2cc(C)nc3ccccc23)cc1    0.941

Kindly review the next compound as well.
Prompt: I have this compound here, O=C(CSCc1c(F)cccc1Cl)NC1Cc2ccccc2C1 , and I need its recorded normalized growth.
Response: 0.956

###

Reported normalized growth by item:
- Experiment Description: chemical genetic growth profiling, strain panel (AID 1159580);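 also: tested at 20 µM; growth read once vehicle control cultures reached saturation at 30 °C; 1 = growth at the plate median or of vehicle wells; lower values mean less growth of the strain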
- Experimental Conditions: S. cerevisiae deletion strains, growth OD, locus YBR023C, strain chs3, stronger effect = lower value
Out of some 5,500 compounds screened, about 2,000 (36%) were called active. Inconclusive results (about 18%) are left out. The list shows a part of the results.
// return just the number, without any unit appended

Prompt: I have this compound here, CC(C)=CCCC1(C)C=Cc2c(O)c3c(c(CC=C(C)C)c2O1)OC12C(=CC4CC1C(C)(C)OC2(C/C=C(/C)C(=O)O)C4=O)C3=O (centres undefined) , and I need its recorded normalized growth.
Response: 0.84

Prompt: Repeat for the following compound: CCCOc1ccccc1-c1nc2n[nH]nc2c(=O)[nH]1
Response: 1

###

- Experiment Description: chemical genetic growth profiling, strain panel (AID 1159580);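 also: tested at 20 µM; growth read once vehicle control cultures reached saturation at 30 °C; 1 = growth at the plate median or of vehicle wells; lower values mean less growth of the strain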
- Experimental Conditions: S. cerevisiae deletion strains, growth OD, locus YGL167C, strain pmr1, stronger effect = lower value
Hit rate of the full screen: of about 5,500 compounds, about 2,000 (36%) were called active. Not shown: some 18% with an inconclusive outcome. Some of the results follow.
Reported normalized growth by item:
// return just the number, without any unit appended

# count of solved cases: 4
C/C=C(/C)C(=O)OC1CCC2(C)C3CCC4C5(O)CC(O)C6(O)C(CN7CC(C)CCC7C6(C)O)C5(O)CC42OC13O (stereo unspecified)    0.996
Nc1c2c(nc3ccccc13)CCCC2O (stereo unspecified)    1
NC(Cc1c[nH]c2ccccc12)C(=O)O (stereo unspecified)    1.02
Nc1c2c(nc3ccccc13)CCCC2    0.978

Prompt: I have this compound here, CCOc1ccc2nc3cc(N)ccc3c(N)c2c1 , and I need its recorded normalized growth.
Response: 1.03

Prompt: Repeat for the following compound: COc1ccc2c3c([nH]c2c1)C(C)=NCC3
Response: 0.993
